Data provenance: ChEMBL document CHEMBL1145637

target: Serine/threonine-protein kinase B-raf (Homo sapiens)
Entries annotated with measured IC50
The reply should contain only the number, in nM.

Observe how each entry below is paired with its result.
CHEMICAL_SMILES: CNc1nccc(-c2[nH]c(C3CC3)nc2-c2cccc(NC(=O)Cc3ccc(Cl)cc3)c2)n1
IC50 [nM]: 9
--
CHEMICAL_SMILES: CC(C)(C)NC(=O)NCCNc1nccc(-c2[nH]c(C3CC3)nc2-c2ccccc2Cl)n1
IC50 [nM]: 83
--
CHEMICAL_SMILES: CNc1nccc(-c2[nH]c(C(F)(F)F)nc2-c2cccc(NC(=O)Cc3ccc(Cl)cc3)c2)n1
IC50 [nM]: 30

Task item: Query the reported IC50 for Serine/threonine-protein kinase B-raf (Homo sapiens); item: CNc1nccc(-c2[nH]c(C3CC3)nc2-c2cccc(NS(=O)(=O)Cc3ccc(Cl)c(Cl)c3)c2)n1
Reply: 469

* * *

biological target: Serine/threonine-protein kinase B-raf (Homo sapiens)
In plain terms, low IC50, meaning strictly below 70 nM, gives Met, and everything else gives Not met.

Some solved entries appear below for comparison.
CHEMICAL_SMILES: NC(=O)c1cccc(Nc2nccc(-c3[nH]c(C4CC4)nc3-c3cccc(NC(=O)Cc4ccc(Cl)cc4)c3)n2)c1
CLASS: Met
//
CHEMICAL_SMILES: O=C1NCCN1CCNc1nccc(-c2nc(C3CC3)[nH]c2-c2cc(Cl)ccc2Cl)n1
CLASS: Met
//
CHEMICAL_SMILES: NC(=O)c1cccc(Nc2nccc(-c3[nH]c(C4CC4)nc3-c3cccc(NC(=O)Nc4ccc(Cl)c(C(F)(F)F)c4)c3)n2)c1
CLASS: Met
//
CHEMICAL_SMILES: NC(=O)c1cccc(Nc2nccc(-c3nc(C4CC4)[nH]c3-c3cccc(NS(=O)(=O)Cc4ccc(Cl)c(Cl)c4)c3)n2)c1
CLASS: Not met
//
CHEMICAL_SMILES: O=C(Cc1ccc(Cl)cc1)Nc1cccc(-c2nc(C3CC3)[nH]c2-c2ccnc(NCCN3CCNC3=O)n2)c1
CLASS: Met

Task item: Quick check: IC50 of NC(=O)c1cccc(Nc2nccc(-c3[nH]c(C(F)(F)F)nc3-c3cccc(NC(=O)Cc4ccc(Cl)cc4)c3)n2)c1 under 70 nM?
Reply: Not met

Task item: Decide: IC50 of O=C(Nc1cccc(-c2nc(C3CC3)[nH]c2-c2ccnc(NCCN3CCNC3=O)n2)c1)Nc1ccc(Cl)c(C(F)(F)F)c1 strictly below 70 nM?
Reply: Met

Task item: Is it true that IC50 reported for O=C(Cc1ccc(Cl)cc1)Nc1cccc(-c2nc(C(F)(F)F)[nH]c2-c2ccnc(NCCN3CCNC3=O)n2)c1 is less than 70 nM?
Reply: Met

* * *

IC50 values, listed per item
target: Serine/threonine-protein kinase B-raf (Homo sapiens, UniProt P15056, V600E)
Sequence (P15056 2-766 V600E limits assumed): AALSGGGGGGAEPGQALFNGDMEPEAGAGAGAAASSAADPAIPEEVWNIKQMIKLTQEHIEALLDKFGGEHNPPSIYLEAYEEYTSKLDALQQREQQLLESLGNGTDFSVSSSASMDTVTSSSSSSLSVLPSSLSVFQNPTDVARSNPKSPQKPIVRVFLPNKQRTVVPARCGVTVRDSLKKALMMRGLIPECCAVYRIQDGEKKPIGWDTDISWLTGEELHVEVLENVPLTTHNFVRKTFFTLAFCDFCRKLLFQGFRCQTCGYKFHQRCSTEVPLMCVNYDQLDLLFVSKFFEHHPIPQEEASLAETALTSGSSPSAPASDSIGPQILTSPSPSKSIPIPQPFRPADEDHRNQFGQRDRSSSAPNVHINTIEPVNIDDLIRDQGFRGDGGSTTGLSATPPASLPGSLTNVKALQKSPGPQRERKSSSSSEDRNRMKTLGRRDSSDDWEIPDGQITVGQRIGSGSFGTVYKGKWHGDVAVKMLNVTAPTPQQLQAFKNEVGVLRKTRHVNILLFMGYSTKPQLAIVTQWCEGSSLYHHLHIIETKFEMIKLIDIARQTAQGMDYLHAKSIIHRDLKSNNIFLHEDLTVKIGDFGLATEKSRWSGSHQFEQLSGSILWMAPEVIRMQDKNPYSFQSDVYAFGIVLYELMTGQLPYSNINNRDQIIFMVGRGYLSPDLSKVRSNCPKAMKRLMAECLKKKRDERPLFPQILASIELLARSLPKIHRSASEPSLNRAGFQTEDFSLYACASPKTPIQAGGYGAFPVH
# number only, unit nM dropped from output

CHEMICAL_SMILES: CNc1nccc(-c2[nH]c(C(F)(F)F)nc2-c2cccc(NC(=O)Cc3ccc(Cl)cc3)c2)n1
QUANTITY_UNIT: nM
RECORDED_MEASUREMENT: 18

CHEMICAL_SMILES: O=C(Cc1ccc(Cl)cc1)Nc1cccc(-c2nc(C(F)(F)F)[nH]c2-c2ccnc(NCCN3CCNC3=O)n2)c1
QUANTITY_UNIT: nM
RECORDED_MEASUREMENT: 40

CHEMICAL_SMILES: CNc1nccc(-c2[nH]c(C3CC3)nc2-c2cccc(NC(=O)Cc3ccc(Cl)cc3)c2)n1
QUANTITY_UNIT: nM
RECORDED_MEASUREMENT: 3

CHEMICAL_SMILES: NC(=O)c1cccc(Nc2nccc(-c3[nH]c(C4CC4)nc3-c3cccc(NC(=O)Cc4ccc(Cl)cc4)c3)n2)c1
QUANTITY_UNIT: nM
RECORDED_MEASUREMENT: 3

We next turn to a different molecule, shown below.
Task item: Item NC(=O)c1cccc(Nc2nccc(-c3[nH]c(C(F)(F)F)nc3-c3cccc(NC(=O)Cc4ccc(Cl)cc4)c3)n2)c1 with Serine/threonine-protein kinase B-raf (Homo sapiens, UniProt P15056, V600E) - IC50?
Reply: 85

* * *

Below are IC50 values measured for Serine/threonine-protein kinase B-raf (Homo sapiens, UniProt P15056, V600E).
Answer in nM, number only, no unit symbol.

Task item: Test system Serine/threonine-protein kinase B-raf (Homo sapiens, UniProt P15056, V600E); read-out IC50; what value for CNc1nccc(-c2[nH]c(C3CC3)nc2-c2cccc(NC(=O)Nc3ccc(Cl)c(C(F)(F)F)c3)c2)n1 ?
Reply: 16

* * *

target: RAF proto-oncogene serine/threonine-protein kinase (Homo sapiens, UniProt P04049)
Sequence (P04049 whole entry): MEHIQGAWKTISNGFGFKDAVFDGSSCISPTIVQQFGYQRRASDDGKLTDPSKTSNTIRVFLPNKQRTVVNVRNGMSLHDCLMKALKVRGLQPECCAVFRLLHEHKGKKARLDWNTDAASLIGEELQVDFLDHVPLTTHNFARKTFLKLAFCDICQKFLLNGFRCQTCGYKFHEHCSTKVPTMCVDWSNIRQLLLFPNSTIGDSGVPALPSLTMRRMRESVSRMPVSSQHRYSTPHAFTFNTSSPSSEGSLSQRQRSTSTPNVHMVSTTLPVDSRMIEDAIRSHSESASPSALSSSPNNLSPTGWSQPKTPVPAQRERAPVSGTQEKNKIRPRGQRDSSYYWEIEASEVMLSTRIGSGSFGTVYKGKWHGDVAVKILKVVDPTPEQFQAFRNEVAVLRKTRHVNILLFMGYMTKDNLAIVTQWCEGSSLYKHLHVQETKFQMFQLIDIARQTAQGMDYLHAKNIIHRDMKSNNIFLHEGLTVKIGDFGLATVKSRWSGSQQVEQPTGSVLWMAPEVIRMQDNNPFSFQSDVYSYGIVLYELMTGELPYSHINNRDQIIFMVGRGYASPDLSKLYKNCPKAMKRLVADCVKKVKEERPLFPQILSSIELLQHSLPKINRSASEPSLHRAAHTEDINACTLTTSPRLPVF
// IC50 lookup, one value per entry
Give just the numeric value; µM need not be written.

The cases that follow already have their IC50 on record.
CHEMICAL_SMILES: O=C(Cc1ccc(Cl)cc1)Nc1cccc(-c2nc(C3CC3)[nH]c2-c2ccnc(NCCN3CCNC3=O)n2)c1
RECORDED_ENDPOINT: IC50
RECORDED_MEASUREMENT: 0.001
--
CHEMICAL_SMILES: CNc1nccc(-c2[nH]c(C(F)(F)F)nc2-c2cccc(NC(=O)Cc3ccc(Cl)cc3)c2)n1
RECORDED_ENDPOINT: IC50
RECORDED_MEASUREMENT: 0.002
--
CHEMICAL_SMILES: NC(=O)c1cccc(Nc2nccc(-c3[nH]c(C4CC4)nc3-c3cccc(NC(=O)Nc4ccc(Cl)c(C(F)(F)F)c4)c3)n2)c1
RECORDED_ENDPOINT: IC50
RECORDED_MEASUREMENT: 0.031
--
CHEMICAL_SMILES: NC(=O)c1cccc(Nc2nccc(-c3[nH]c(C(F)(F)F)nc3-c3cccc(NC(=O)Cc4ccc(Cl)cc4)c3)n2)c1
RECORDED_ENDPOINT: IC50
RECORDED_MEASUREMENT: 0.017

Task item: Which IC50 is reported for this compound? O=C1NCCN1CCNc1nccc(-c2nc(C3CC3)[nH]c2-c2cccc(NS(=O)(=O)Cc3ccc(Cl)c(Cl)c3)c2)n1
Reply: 0.041

* * *

Examples of compounds with documented pIC50 follow.
test: Inhibition of ERK phosphorylation
For clarity, pIC50 is expressed as the negative log10 of concentration in mol/L.

CHEMICAL_SMILES: CNc1nccc(-c2[nH]c(C(F)(F)F)nc2-c2cccc(NC(=O)Cc3ccc(Cl)cc3)c2)n1
pIC50: 4.90
--
CHEMICAL_SMILES: CNc1nccc(-c2[nH]c(C3CC3)nc2-c2cccc(NC(=O)Nc3ccc(Cl)c(C(F)(F)F)c3)c2)n1
pIC50: 5.85

Task item: State the recorded pIC50 for this entry: CNc1nccc(-c2[nH]c(C3CC3)nc2-c2cccc(NC(=O)Cc3ccc(Cl)cc3)c2)n1
Reply: 5.29

* * *

assay: Aqueous solubility in NaH2PO4 at pH 7.4 after 24 hrs by HPLC; assay type: physicochemical; conditions: NaH2PO4 buffer, pH 7.4
RECORDED_ENDPOINT: solubility at 24 h (µM)
Record the value in µM, omitting the unit from your answer.

The cases that follow already have their solubility at 24 h on record.
CHEMICAL_SMILES: CNc1nccc(-c2[nH]c(C(F)(F)F)nc2-c2cccc(NC(=O)Cc3ccc(Cl)cc3)c2)n1
solubility at 24 h (µM): 0.48
--
CHEMICAL_SMILES: CNC(=O)c1cc(Oc2ccc(NC(=O)Nc3ccc(Cl)c(C(F)(F)F)c3)cc2)ccn1
solubility at 24 h (µM): 6.3
--
CHEMICAL_SMILES: NC(=O)c1cccc(Nc2nccc(-c3[nH]c(C4CC4)nc3-c3cccc(NC(=O)Cc4ccc(Cl)cc4)c3)n2)c1
solubility at 24 h (µM): 0.5
--
CHEMICAL_SMILES: CNc1nccc(-c2[nH]c(C3CC3)nc2-c2cccc(NC(=O)Nc3ccc(Cl)c(C(F)(F)F)c3)c2)n1
solubility at 24 h (µM): 0.3
--
CHEMICAL_SMILES: NC(=O)c1cccc(Nc2nccc(-c3[nH]c(C(F)(F)F)nc3-c3cccc(NC(=O)Cc4ccc(Cl)cc4)c3)n2)c1
solubility at 24 h (µM): 0.35
--
CHEMICAL_SMILES: CNc1nccc(-c2[nH]c(C3CC3)nc2-c2cccc(NC(=O)Cc3ccc(Cl)cc3)c2)n1
solubility at 24 h (µM): 0.4
--
CHEMICAL_SMILES: O=C(Nc1cccc(-c2nc(C3CC3)[nH]c2-c2ccnc(NCCN3CCNC3=O)n2)c1)Nc1ccc(Cl)c(C(F)(F)F)c1
solubility at 24 h (µM): 6.2
--
CHEMICAL_SMILES: NC(=O)c1cccc(Nc2nccc(-c3[nH]c(C4CC4)nc3-c3cccc(NC(=O)Nc4ccc(Cl)c(C(F)(F)F)c4)c3)n2)c1
solubility at 24 h (µM): 0.4
--
CHEMICAL_SMILES: O=C(Cc1ccc(Cl)cc1)Nc1cccc(-c2nc(C(F)(F)F)[nH]c2-c2ccnc(NCCN3CCNC3=O)n2)c1
solubility at 24 h (µM): 7.5

We now examine a further compound.
Task item: What value of measured solubility at 24 h is listed for O=C(Cc1ccc(Cl)cc1)Nc1cccc(-c2nc(C3CC3)[nH]c2-c2ccnc(NCCN3CCNC3=O)n2)c1 ?
Reply: 35
